# System: kochia (Kochia scoparia)
# assayMethodText: Test B pre-/postemergence plant response
# Format: in vivo
# appliedConditions: 125 g ai/ha, postemergence; 0 to 100 scale, 0 no effect, 100 complete control
parameterMeasured: Plant response rating, Kochia
Reply with the value as a number alone.

Reference set, count: 6
compound | Plant response rating, Kochia
CC(=O)c1cc(-c2ccccc2Oc2ncc(Cl)cn2)on1 [Compound 218] | 0
N#Cc1cc(-c2ccccc2Oc2ncc(Cl)cn2)on1 [Compound 223] | 10
Clc1cnc(Oc2ccccc2-c2cccs2)nc1 [Compound 182] | 30
C=C(C)c1cc(-c2ccccc2Oc2ncc(Br)cn2)on1 [Compound 197] | 0
CCOC(OCC)c1cc(-c2ccccc2Oc2ncc(Cl)cn2)on1 [Compound 108] | 0
Brc1cnc(Oc2ccccc2-c2cc(Br)no2)nc1 [Compound 119] | 30

Q: Given Cn1nnc(-c2ccccc2Oc2ncc(Cl)cn2)n1 [Compound 48] , report its Plant response rating, Kochia on kochia (Kochia scoparia).
Ans: 50

Q: Given CC(F)(F)c1cc(-c2ccccc2Oc2ncc(Br)cn2)no1 [Compound 149] , report its Plant response rating, Kochia on kochia (Kochia scoparia).
Ans: 100

Q: Given FC(F)(F)COc1cc(-c2ccccc2Oc2ncc(Cl)cn2)ncn1 [Compound 227] , report its Plant response rating, Kochia on kochia (Kochia scoparia).
Ans: 80

Q: Given COc1cccc(Oc2ncc(Cl)cn2)c1-c1cc(C(F)F)on1 [Compound 109] , report its Plant response rating, Kochia on kochia (Kochia scoparia).
Ans: 30

Q: Given Cn1nc(-c2ccccc2Oc2ncc(Cl)cn2)cc1C(F)(F)F [Compound 237] , report its Plant response rating, Kochia on kochia (Kochia scoparia).
Ans: 0

Q: Given Fc1ccc(Oc2ncc(Cl)cn2)c(-c2cc(C(F)(Cl)Cl)on2)c1 [Compound 221] , report its Plant response rating, Kochia on kochia (Kochia scoparia).
Ans: 100

Q: Given Fc1cccc(Oc2ncc(Cl)cn2)c1-c1cnccn1 [Compound 165] , report its Plant response rating, Kochia on kochia (Kochia scoparia).
Ans: 40

Q: Given Fc1cccc(Oc2ncc(Br)cn2)c1-c1cc(C(F)F)no1 [Compound 145] , report its Plant response rating, Kochia on kochia (Kochia scoparia).
Ans: 100

Q: Given COc1cccc(Oc2ncc(Cl)cn2)c1-c1cc(C)no1 [Compound 110] , report its Plant response rating, Kochia on kochia (Kochia scoparia).
Ans: 50

Q: Given Cc1cc(-c2ccccc2Oc2ncc(Cl)cn2)no1 [Compound 153] , report its Plant response rating, Kochia on kochia (Kochia scoparia).
Ans: 90

Q: Given Fc1cnc(Oc2cccc(F)c2-c2cnccn2)nc1 [Compound 166] , report its Plant response rating, Kochia on kochia (Kochia scoparia).
Ans: 0

====

# System: waterhemp (common waterhemp, Amaranthus rudis)
# assayMethodText: Test D pre-/postemergence plant response
# Format: in vivo
# appliedConditions: Amaranthus tuberculatus, post-emergence; Postemergence, 125 g ai/ha; scale 0 to 100, 0 no effect, 100 complete control; read-out: Plant response rating, Waterhemp
parameterMeasured: pest or weed control at 125 g/ha (%)
Write the number in % without appending the unit.

smilesStr | pest or weed control at 125 g/ha [%]
Fc1cccc(Oc2ncc(Cl)cn2)c1-c1cc(C(F)F)no1 | 100
FC(F)c1cc(-c2ccccc2Oc2ncc(Br)cn2)no1 | 98
Fc1cccc(Oc2ncc(Cl)cn2)c1-c1cc(C(F)F)on1 | 100
FC(F)(F)c1cc(-c2ccccc2Oc2ncc(Cl)cn2)on1 | 98

// next entry
Q: Answer with the recorded pest or weed control at 125 g/ha for the compound listed here: "Fc1cccc(Oc2ncc(Cl)cn2)c1-c1cc(C(F)(F)F)on1"
Ans: 98

====

# Tested on: fall panicum (Panicum dichotomiflorum)
# assayMethodText: Test F pre-/postemergence plant response
# Assay type: in vivo
# appliedConditions: Panicum dichotomiflorum, post-emergence; 125 g ai/ha Postemergence; scale 0 to 100; read-out: Plant response rating, Panicum, Fall
Measured pest or weed control at 125 g/ha by item
Write the number in % without appending the unit.

molecule | pest or weed control at 125 g/ha (%)
FC(F)(F)c1cc(-c2ccccc2Oc2ncc(Cl)cn2)no1 [Compound 200] | 15
FC(F)c1cc(-c2ccccc2Oc2ncc(Cl)cn2)on1 [Compound 53] | 60
Fc1cccc(Oc2ncc(Br)cn2)c1-c1cc(C(F)F)no1 [Compound 145] | 80

Q: Answer with the recorded pest or weed control at 125 g/ha for the molecule listed here: FC(F)c1cc(-c2ccccc2Oc2ncc(Cl)cn2)no1 [Compound 35]
Ans: 50

====

# Tested on: Italian ryegrass (Lolium multiflorum)
# assayMethodText: Test B pre-/postemergence plant response
# Assay type: in vivo
# appliedConditions: 31 g ai/ha, Preemergence; 0 to 100 scale where 0 is no effect and 100 is complete control
parameterMeasured: Plant response rating, Ryegrass, Italian
Reply with the value as a number alone.

smilesStr | Plant response rating, Ryegrass, Italian
FC(F)(F)COc1cc(-c2ccccc2Oc2ncc(Cl)cn2)on1 | 0
Clc1cnc(Oc2ccccc2-c2cc(Cl)ccn2)nc1 | 0
Cn1nc(-c2c(C#N)cccc2Oc2ncc(Cl)cn2)cc1C(F)(F)F | 0
N#Cc1cccc(Oc2ncc(Cl)cn2)c1-c1ccsc1 | 0
COc1cccc(Oc2ncc(Cl)cn2)c1-c1cc(C(F)F)on1 | 0

Q: Answer with the recorded Plant response rating, Ryegrass, Italian for the molecule listed here: "Cc1csc(-c2c(C#N)cccc2Oc2ncc(Cl)cn2)c1"
Ans: 0

Q: Answer with the recorded Plant response rating, Ryegrass, Italian for the molecule listed here: "Cc1cc(-c2c(F)cccc2Oc2ncc(Cl)cn2)on1"
Ans: 0

Q: Answer with the recorded Plant response rating, Ryegrass, Italian for the molecule listed here: "N#Cc1cc(-c2c(F)cccc2Oc2ncc(Cl)cn2)no1"
Ans: 0

Q: Answer with the recorded Plant response rating, Ryegrass, Italian for the molecule listed here: "FC(F)c1cc(-c2ccccc2Oc2ncc(Cl)cn2)co1"
Ans: 0

Q: Answer with the recorded Plant response rating, Ryegrass, Italian for the molecule listed here: "FC(F)(Br)c1cc(-c2ccccc2Oc2ncc(Cl)cn2)no1"
Ans: 0

Q: Answer with the recorded Plant response rating, Ryegrass, Italian for the molecule listed here: "FC(F)(Cl)c1cc(-c2ccccc2Oc2ncc(Cl)cn2)no1"
Ans: 0

Q: Answer with the recorded Plant response rating, Ryegrass, Italian for the molecule listed here: "Fc1cccc(Oc2ncc(Cl)cn2)c1-c1cc(C2CC2)on1"
Ans: 20

Q: Answer with the recorded Plant response rating, Ryegrass, Italian for the molecule listed here: "Brc1cnc(Oc2ccccc2-c2ccns2)nc1"
Ans: 0

Q: Answer with the recorded Plant response rating, Ryegrass, Italian for the molecule listed here: "Fc1cccc(Oc2ncc(Br)cn2)c1-c1cc(C(F)F)on1"
Ans: 20

Q: Answer with the recorded Plant response rating, Ryegrass, Italian for the molecule listed here: "N#Cc1cc(-c2ccccc2Oc2ncc(Cl)cn2)on1"
Ans: 0

Q: Answer with the recorded Plant response rating, Ryegrass, Italian for the molecule listed here: "CC(F)(F)c1cc(-c2ccccc2Oc2ncc(Cl)cn2)no1"
Ans: 0

Q: Answer with the recorded Plant response rating, Ryegrass, Italian for the molecule listed here: "O=Cc1cc(-c2ccccc2Oc2ncc(Cl)cn2)co1"
Ans: 0

Q: Answer with the recorded Plant response rating, Ryegrass, Italian for the molecule listed here: "FC(F)(F)c1cc(-c2c(Cl)cccc2Oc2ncc(Cl)cn2)on1"
Ans: 40

Q: Answer with the recorded Plant response rating, Ryegrass, Italian for the molecule listed here: "CC(C)(F)c1cc(-c2ccccc2Oc2ncc(Cl)cn2)no1"
Ans: 0

Q: Answer with the recorded Plant response rating, Ryegrass, Italian for the molecule listed here: "FC(Cl)(Cl)c1cc(-c2ccccc2Oc2ncc(Cl)cn2)no1"
Ans: 0

====

Measured Plant response rating, Barnyardgrass by item
# System: barnyardgrass (Echinochloa crus-galli)
# assayMethodText: Test B pre-/postemergence plant response
# Format: in vivo
# appliedConditions: Postemergence, 500 g ai/ha; 0 to 100 scale (0 no effect, 100 complete control)
# Excerpt: […]
Reply with the value as a number alone.

compound | endpointValue
CC(C)(C)c1cc(-c2ccccc2Oc2ncc(Cl)cn2)no1 [Compound 59] | 10
FC(F)(F)c1ccc(-c2ccccc2Oc2ncc(Cl)cn2)cc1 [Compound 43] | 20

Q: Answer with the recorded Plant response rating, Barnyardgrass for the compound listed here: Cn1nncc1-c1ccccc1Oc1ncc(Cl)cn1 [Compound 52]
Ans: 10

Q: Answer with the recorded Plant response rating, Barnyardgrass for the compound listed here: FC(F)(F)c1cc(-c2c(Br)cccc2Oc2ncc(Cl)cn2)no1 [Compound 170]
Ans: 20

Q: Answer with the recorded Plant response rating, Barnyardgrass for the compound listed here: Cn1nnnc1-c1ccccc1Oc1ncc(Cl)cn1 [Compound 47]
Ans: 0

Q: Answer with the recorded Plant response rating, Barnyardgrass for the compound listed here: Clc1cnc(Oc2ccccc2-c2cc(C3CC3)on2)nc1 [Compound 183]
Ans: 70

Q: Answer with the recorded Plant response rating, Barnyardgrass for the compound listed here: Cn1cc(-c2ccccc2Oc2ncc(Cl)cn2)cn1 [Compound 11]
Ans: 10

Q: Answer with the recorded Plant response rating, Barnyardgrass for the compound listed here: Clc1cnc(Oc2ccccc2-c2cccnc2)nc1 [Compound 4]
Ans: 10

Q: Answer with the recorded Plant response rating, Barnyardgrass for the compound listed here: FC(F)(F)c1csc(-c2ccccc2Oc2ncc(Br)cn2)n1 [Compound 139]
Ans: 0

Q: Answer with the recorded Plant response rating, Barnyardgrass for the compound listed here: CC(C)n1ncnc1-c1ccccc1Oc1ncc(Cl)cn1 [Compound 123]
Ans: 0

Q: Answer with the recorded Plant response rating, Barnyardgrass for the compound listed here: FC(F)(F)c1csc(-c2ccccc2Oc2ncc(Cl)cn2)n1 [Compound 137]
Ans: 10

Q: Answer with the recorded Plant response rating, Barnyardgrass for the compound listed here: FC(F)(F)c1cnc(Oc2ccccc2-c2cncs2)nc1 [Compound 13]
Ans: 0

Q: Answer with the recorded Plant response rating, Barnyardgrass for the compound listed here: Cn1nc(C(F)(F)F)cc1-c1ccccc1Oc1ncc(Br)cn1 [Compound 30]
Ans: 0

Each recorded value in this set is attributed to patent US10131652B2.
